Target: plasma purified human AT-III (antithrombin III)
Experiment: AT-III/UFH inhibition K0.5, ratio to Catalyst Biosciences WT FIXa
measured metric: K0.5-mut/K0.5-wt
No unit in the answer, please; the number alone is enough.

FIXa-K247N/N249S/R318Y/R338E/R403E/E410N (protein) chain 1: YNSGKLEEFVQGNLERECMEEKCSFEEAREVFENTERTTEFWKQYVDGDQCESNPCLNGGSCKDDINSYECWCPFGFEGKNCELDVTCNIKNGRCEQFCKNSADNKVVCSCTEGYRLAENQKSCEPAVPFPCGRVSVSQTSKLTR chain 2: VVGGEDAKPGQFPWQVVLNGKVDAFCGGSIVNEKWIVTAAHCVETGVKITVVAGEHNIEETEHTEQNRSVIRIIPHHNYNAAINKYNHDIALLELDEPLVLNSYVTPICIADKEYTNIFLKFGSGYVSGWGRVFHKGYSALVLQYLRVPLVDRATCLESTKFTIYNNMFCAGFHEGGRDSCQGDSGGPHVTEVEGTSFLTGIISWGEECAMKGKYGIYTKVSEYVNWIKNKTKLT :: 418

Next protein, please.
The recorded K0.5-mut/K0.5-wt for entry FIXa-A103N/N105S/K247N/N249S/R318Y/R338E/R403E/E410N (protein) chain 1: YNSGKLEEFVQGNLERECMEEKCSFEEAREVFENTERTTEFWKQYVDGDQCESNPCLNGGSCKDDINSYECWCPFGFEGKNCELDVTCNIKNGRCEQFCKNSNDSKVVCSCTEGYRLAENQKSCEPAVPFPCGRVSVSQTSKLTR chain 2: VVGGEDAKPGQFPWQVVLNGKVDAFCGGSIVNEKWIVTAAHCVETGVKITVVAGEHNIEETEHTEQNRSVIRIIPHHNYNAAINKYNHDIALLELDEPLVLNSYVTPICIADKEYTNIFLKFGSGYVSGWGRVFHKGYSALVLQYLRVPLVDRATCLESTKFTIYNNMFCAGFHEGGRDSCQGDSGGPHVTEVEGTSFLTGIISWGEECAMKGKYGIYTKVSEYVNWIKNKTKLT equals 129
